Test: surface flow cytometry with MD5-1, B16
Details: glycan lost; control: WT mTRAIL-R
Metric: expression_or_secretion

[[record]]
protein = "mTRAIL-R (mouse TRAIL receptor): N99A (protein) parent chain: MEPPGPSTPTASAAARADHYTPGLRPLPKRRLLYSFALLLAVLQAVFVPVTANPAHNRPAGLQRPEESPSRGPCLAGQYLSEGNCKPCREGIDYTSHSNHSLDSCILCTVCKEDKVVETRCNITTNTVCRCKPGTFEDKDSPEICQSCSNCTDGEEELTSCTPRENRKCVSKTAWASWHKLGLWIGLLVPVVLLIGALLVWKTGAWRQWLLCIKRGCERDPESANSVHSSLLDRQTSSTTNDSNHNTEPGKTQKTGKKLLVPVNGNDSADDLKFIFEYCSDIVPFDSWNRLMRQLGLTDNQIQMVKAETLVTREALYQMLLKWRHQTGRSASINHLLDALEAVEERDAMEKIEDYAVKSGRFTYQNAAAQPETGPGGSQCV"
metric = "expression_or_secretion"
reported = "no change"

[[record]]
protein = "mTRAIL-R (mouse TRAIL receptor): N99/122A (protein) parent chain: MEPPGPSTPTASAAARADHYTPGLRPLPKRRLLYSFALLLAVLQAVFVPVTANPAHNRPAGLQRPEESPSRGPCLAGQYLSEGNCKPCREGIDYTSHSNHSLDSCILCTVCKEDKVVETRCNITTNTVCRCKPGTFEDKDSPEICQSCSNCTDGEEELTSCTPRENRKCVSKTAWASWHKLGLWIGLLVPVVLLIGALLVWKTGAWRQWLLCIKRGCERDPESANSVHSSLLDRQTSSTTNDSNHNTEPGKTQKTGKKLLVPVNGNDSADDLKFIFEYCSDIVPFDSWNRLMRQLGLTDNQIQMVKAETLVTREALYQMLLKWRHQTGRSASINHLLDALEAVEERDAMEKIEDYAVKSGRFTYQNAAAQPETGPGGSQCV"
metric = "expression_or_secretion"
reported = "no change"

